Provenance of the data: ChEMBL document CHEMBL3988442

- System: Trypanosoma brucei
- test_summary: Trypanosoma brucei 72 hour study
- Assay type: functional, organism-based
- Parameters: scale not given: in the data most compounds retested in dose-response had high values
- test_settings: 10 mM as filed; unlikely as a test dose
Among all 66,000 compounds or so, about 960 (1.5%) showed an effect of 50% or more. What follows is part of a selection rich in strong results, with near analogues and random picks from the rest.
Could you mark each record Y if its Percent Effect falls strictly under -20%, and N if it equals or exceeds it?

1. Cc1cnn(C2CCCN(C(=O)c3ccc(-n4cccn4)nc3)C2)c1 (stereo unspecified) ... Y
2. CCN1N=C(C(=O)N2CCCC(c3nc(C)cs3)C2)CCC1=O (stereo unspecified) ... N
3. CN(CCC(O)c1ccccc1)Cc1nc(-c2ccccc2)no1 (stereo unspecified) ... Y
4. Cc1cc(C2CCCN(CCNS(=O)(=O)c3ccccc3)C2)n[nH]1 (stereo unspecified) ... N
5. Cc1nc(CN2CCCC(NCc3ccc(Cl)s3)C2)no1 (stereo unspecified) ... Y
6. O=C(NC[C@H]1CCCC[C@H]1O)c1cccc2[nH]c(-c3cccs3)nc12 ... N

====

- Test system: Trypanosoma brucei
- test_summary: Trypanosoma brucei 72 hour study
- Type: functional, organism-based
- Parameters: scale not given: in the data most compounds retested in dose-response had high values
- test_settings: 30 µM; 30.03 µM
About 960 (1.5%) of roughly 66,000 compounds showed an effect of 50% or more. Only a selection was taken, and strong results are over-represented in it overall.
Quick rule: Percent Effect of at least 10% means criterion met, below that means criterion not met.

1. OC(COc1ccccc1)CN1CCC(c2ccn[nH]2)CC1 (stereo unspecified) ... criterion not met
2. CN1CCCN(c2nccc(-c3c[nH]nc3C3CCCCC3)n2)CC1 ... criterion met
3. Nc1ncc2c(n1)CN(C1CCCC1)C2=O ... criterion met
4. CN1CCCN(c2nccc(-c3cc(C(=O)O)ccn3)n2)CC1 ... criterion not met
5. Cc1[nH]nc(CCC(=O)N2CCc3ncnc(NCCO)c3CC2)c1C ... criterion not met

====

- Test system: Trypanosoma brucei
- test_summary: Trypanosoma brucei 72 hour study
- Format: functional, organism-based
- Design: scale not given: in the data most compounds retested in dose-response had high values
- test_settings: 30 µM; 30.03 µM
Screen size: about 66,000 compounds; about 960 (1.5%) showed an effect of 50% or more. This excerpt belongs to a sample that is enriched for strong results.
Dear colleague, classification is by Percent Effect, with ranges listed here: low interval (below -20%), middle interval (-20% to below 20%), high interval (20% or more)

1) O=C(c1cccc(Cl)c1)C1CCCN(c2nnc(C3CCC3)o2)C1 (stereo unspecified) ... high interval
2) O=C(NCC1CC1)[C@H]1C[C@@H]2CN(S(=O)(=O)Cc3ccccc3)C[C@H]1O2 ... middle interval
3) Cc1nnc(N2CCCC(C(=O)c3cccc(Cl)c3)C2)o1 (stereo unspecified) ... middle interval
4) CN1CCc2c(C#N)c(NCCCN3CCOCC3)n3cnnc3c2C1.Cl.Cl ... high interval
5) COC[C@@]12CC[C@@H](N3CCOCC3)C[C@H]1CCN(c1ncccc1Cl)C2 ... high interval
6) Cc1cc(=O)n(CC(=O)Nc2ccc(Cl)cc2)nc1C ... low interval
7) CC(C)C1SCC(=O)Nc2c1cnn2-c1ccc(Cl)cc1 (stereo unspecified) ... middle interval
8) Cl.Cn1ccnc1Sc1ccc(N)cn1 ... middle interval
9) Cn1cc(-c2csc(N3CCSCC3)n2)cn1 ... low interval
10) O=C(c1cccnc1)C1CCCN(c2nnc(C3CC3)o2)C1 (stereo unspecified) ... low interval
11) CN1CCN(c2nc(-c3cnn(C)c3)cs2)CC1 ... middle interval
